Tested on: Plasma
Assay: Anticoagulant activity in human plasma assessed as concentration required to double prothrombin time
Assay type: functional
parameter: Activity (µM)
All answers are understood in µM, so give the number only.

Data point: CCOC(=O)N1CCC(NC(=O)c2nc3c(s2)CN(C)CC3)C(NC(=O)c2cc3cc(Cl)ccc3[nH]2)C1 (racemic) ; Activity = 11

Data point: CCNC(=O)N1CC[C@H](NC(=O)c2cc3cc(Cl)ccc3[nH]2)[C@H](NC(=O)c2nc3c(s2)CN(C)CC3)C1 ; Activity = 0.8

Data point: CN1CCc2nc(C(=O)N[C@@H]3CN(C(=O)CO)CC[C@@H]3NC(=O)c3cc4cc(Cl)ccc4[nH]3)sc2C1 ; Activity = 0.9

Data point: CCOC(=O)N1CCC(NC(=O)c2cc3cc(Cl)ccc3[nH]2)C(NC(=O)c2nc3c(s2)CN(C)CC3)C1 (racemic) ; Activity = 1.4

Data point: COC(=O)CN1CC[C@H](NC(=O)c2cc3cc(Cl)ccc3[nH]2)[C@H](NC(=O)c2nc3c(s2)CN(C)CC3)C1 ; Activity = 2.1

Data point: CN1CCc2nc(C(=O)NC3CCCCC3NC(=O)c3cc4cc(Cl)ccc4[nH]3)sc2C1 (racemic) ; Activity = 4.4

Data point: CC(=O)N1CCC(NC(=O)c2nc3c(s2)CN(C)CC3)C(NC(=O)c2cc3cc(Cl)ccc3[nH]2)C1 (racemic) ; Activity = 5.8

Data point: CN1CCc2nc(C(=O)NC3CN(C(=O)OC(C)(C)C)CCC3NC(=O)c3cc4cc(Cl)ccc4[nH]3)sc2C1 (racemic) ; Activity = 3.5

Data point: COCCN1CC[C@H](NC(=O)c2cc3cc(Cl)ccc3[nH]2)[C@H](NC(=O)c2nc3c(s2)CN(C)CC3)C1 ; Activity = 3.8

Data point: CC(C)C(=O)N1CC[C@H](NC(=O)c2cc3cc(Cl)ccc3[nH]2)[C@H](NC(=O)c2nc3c(s2)CN(C)CC3)C1 ; Activity = 1.1

Data point: CN1CCc2nc(C(=O)NC3CCN(C(=O)OC(C)(C)C)CC3NC(=O)c3cc4cc(Cl)ccc4[nH]3)sc2C1 (racemic) ; Activity = 6.2

Data point: CN1CCc2nc(C(=O)NC3CCN(S(C)(=O)=O)CC3NC(=O)c3cc4cc(Cl)ccc4[nH]3)sc2C1 (racemic) ; Activity = 8

---

Overview of reported CLint scaled across a group of molecules:
Experiment: Metabolic stability assessed as intrinsic clearance in human liver microsome
Format: ADME
Conditions: liver microsomes
All answers are understood in mL/min/kg, so give the number only.

# example entries with known answers
Data point: CC(=O)N1CCC(NC(=O)c2cc3cc(Cl)ccc3[nH]2)C(NC(=O)c2nc3c(s2)CN(C)CC3)C1 (racemic) ; CLint scaled = 95.4

Data point: CC(C)C(=O)N1CCC(NC(=O)c2cc3cc(Cl)ccc3[nH]2)C(NC(=O)c2nc3c(s2)CN(C)CC3)C1 (racemic) ; CLint scaled = 98.1

Here's the next entry for you.
Data point: CN1CCc2nc(C(=O)N[C@@H]3CCCC[C@@H]3NC(=O)c3cc4cc(Cl)ccc4[nH]3)sc2C1 ; CLint scaled = 97.2

The values you see were collected from ChEMBL document CHEMBL1143176.
